Test system: MS2 coat protein
Assay: apparent KD of MS2 coat protein; designed switch direction (-1 OFF switch, 1 ON switch): -1; higher = weaker reporter binding
Conditions: Eterna round: R95; input ligand: microRNA oligo, concentration not stated
Below is a list of entries, each paired with its recorded apparent KD of MS2 coat protein value.
The response must be a number in nM with no trailing unit.

Example sequences with recorded apparent KD of MS2 coat protein:
{"columns": ["SEQUENCE INPUT", "RECORDED VALUE"],
 "data": [
  ["UACCUAAUGGGUGUUUCUCACAUGAGGAUCACCCAUGUCACUAGCUUUUUGCUCAUCUUAUCGAAACACCCUUAGUC [Birerage] (puzzle: Sensor v3, turn-off variant 1)", 10.2],
  ["AUAGAGUCAGGAUAUACAGGUGGAGGAGAGCAGCGUAAGGAGUAGAAGGGACAUGAGGAUCACCCAUGUAAGUG [JR_Exclu4_Sub060] (puzzle: Exclusion 4)", 55.1],
  ["AGAAGUAGAAACCGAUCCUACAUGAGGAUCACCCAUGUAGCAAGACGUGCACGCGAAGCUCGUCAGACUACCAGAGG [salish99_TOv1_r3_018] (puzzle: Sensor v3, turn-off variant 1)", 124],
  ["CCGGAUAUGCAGGAUAUCGUAUCGGAAACGAUACGAGAAGGGUAUACAUGAGGAUCACCCAUGUGUCCUACCGG [Fiskers Ex 6 - 20] (puzzle: Exclusion 6)", 23.8]
]}

Lab note: next sequence to report on.
// apparent KD of MS2 coat protein value for GAGACACAUGAGGAUCACCCAUGUGAGGAUAUCCGAAGGACCAAAUUAAGAAUUAAAGGGAGAAGGCACAUAAA [Exclusion 1 V5] (puzzle: Exclusion 1) : 27.2

Numbers sourced from the supplement of paper PMC9170038.
